# System: HCT116 p53+/+ colon cancer cells
# test_name: MTT cytotoxicity assay, HCT116 p53+/+
# Assay type: cell-based
# condition: Homo sapiens, HCT-116, 72 h, read-out: IC50 HCT116 p53+/+ colon cancer cells
reported_endpoint: IC50 (µM)
Report the figure in µM without appending any unit label.

>  <smiles_string>
COc1cccc2c1C(=O)c1c(O)c3c(c(O)c1C2=O)C[C@@](O)(C(=O)CO)C[C@@H]3O[C@H]1C[C@H](N)[C@H](O)[C@H](C)O1

>  <unit_descriptor>
µM

>  <IC50>
0.52

$$$$

Now look at this one.
// IC50 lookup, compound = `CC1=C(O)C(=O)C=C2C1=CC=C1[C@@]2(C)CC[C@@]2(C)[C@@H]3C[C@](C)(C(=O)O)CC[C@]3(C)CC[C@]12C` , result: 0.831

====

# System: A2780 (Ovary) cisplatin resistant cancer cells
# test_name: MTT cytotoxicity assay, A2780 cisplatin resistant
# Assay type: cell-based, human
# condition: MTT, 3 days; read-out: IC50 A2780 (Ovary) (Cisplatin resistant)
reported_endpoint: pIC50
pIC50 is a log-scale quantity: -log10 of the concentration expressed in molar.

// pIC50 lookup, compound = N.N.[Cl][Pt][Cl] [Cisplatin, cisplatin] , result: 4.73

====

# Test system: A2780 (Ovary) cisplatin resistant cancer cells
# test_name: MTT cytotoxicity assay, A2780 cisplatin resistant
# Format: cell-based, human
# condition: Homo sapiens, A2780, 72 h, read-out: IC50 A2780 (Ovary) (Cisplatin resistant)
reported_endpoint: IC50 (nM)
Report the figure in nM without appending any unit label.

Reading of IC50 for `CC1=C(O)C(=O)C=C2C1=CC=C1[C@@]2(C)CC[C@@]2(C)[C@@H]3C[C@](C)(C(=O)O)CC[C@]3(C)CC[C@]12C` with A2780 (Ovary) cisplatin resistant cancer cells: 543

====

# System: MCF-7 (Breast) taxol sensitive cancer cells
# test_name: MTT cytotoxicity assay, MCF-7 taxol sensitive
# Assay type: cell-based
# condition: Homo sapiens, MCF7, 72 h, read-out: IC50 MCF-7 (Breast) (Taxol sensitive)
reported_endpoint: IC50 (µM)
Report the figure in µM without appending any unit label.

// IC50 lookup, compound = `CC1=C(O)C(=O)C=C2C1=CC=C1[C@@]2(C)CC[C@@]2(C)[C@@H]3C[C@](C)(C(=O)O)CC[C@]3(C)CC[C@]12C` , result: 1.12

====

# Test system: MDA-MB-231 pcDNA breast cancer cells
# test_name: MTT cytotoxicity assay, MDA-MB-231 pcDNA
# Type: cell-based
# condition: Homo sapiens, MDA-MB-231, 72 h, 3 days
reported_endpoint: IC50 (µM)
Report the figure in µM without appending any unit label.

// IC50 lookup, compound = CC1=C(O)C(=O)C=C2C1=CC=C1[C@@]2(C)CC[C@@]2(C)[C@@H]3C[C@](C)(C(=O)O)CC[C@]3(C)CC[C@]12C [Celastrol, celastrol] , result: 4.83

====

# Tested on: A2780 (Ovary) cisplatin sensitive cancer cells
# test_name: MTT cytotoxicity assay, A2780 cisplatin sensitive
# Type: cell-based, human
# condition: Homo sapiens, A2780, 72 h, read-out: IC50 A2780 (Ovary) (Cisplatin sensitive)
reported_endpoint: pIC50
pIC50 is a log-scale quantity: -log10 of the concentration expressed in molar.

// pIC50 lookup, compound = `CC1=C(O)C(=O)C=C2C1=CC=C1[C@@]2(C)CC[C@@]2(C)[C@@H]3C[C@](C)(C(=O)O)CC[C@]3(C)CC[C@]12C` , result: 6.28

meta.source: patent US10322097B2
